Experiment: Pharmacokinetics of GQD constituents in the systemic circulation of mice after oral GQD
Format: in vivo, Kunming mice
Conditions: both, Kunming, mouse, systemic circulation plasma, po, […], systemic circulation plasma, mice, oral GQD […]; read-out: T1/2 (converted)
property name: half-life

Examples with answers:
O=c1c(-c2ccc(O)cc2)coc2c([C@@H]3O[C@H](CO)[C@@H](O)[C@H](O)[C@H]3O)c(O)ccc12 [Puerarin, puerarin]: 3.4 h
CC1(C)[C@@H](O)CC[C@]2(C)[C@H]3C(=O)C=C4[C@@H]5C[C@@](C)(C(=O)O)CC[C@]5(C)CC[C@@]4(C)[C@]3(C)CC[C@@H]12 [Glycyrrhetinic acid, glycyrrhetinic acid]: ~6 h

# context switch: different compound, same half-life
Tell me the measured half-life of COc1ccc2cc3[n+](cc2c1OC)CCc1cc2c(cc1-3)OCO2 [Berberine, berberine] , please.
~6 h
